# study.system: assembled tsyn (core aggregation domain of α-synuclein, amino acids 31-109) (Homo sapiens, UniProt P37840)
# Construct: The core aggregation domain of α-synuclein (amino acids 31-109) was expressed with an N-terminal polyhistidine tag; polyhistidine (N); made in house; host or cells: E. coli
# method: Fluorescence assay of disruption of assembled tsyn (thioflavine T / primulin)
# Format: biochemical
# condition.summary: assembled tsyn, primulin 0.2 μM; read-out: P50 (mean), effect of fluorophore concentration
reported.endpoint: IC50

Query: Name the reported IC50 value associated with the compound CCN(CC)c1ccc2nc3ccc(N(CC)CC)cc3[s+]c2c1 [ETC, Ethyl-thioninium chloride]
Response: 41.7 µM

Query: Name the reported IC50 value associated with the compound CN(C)c1ccc2nc3ccc(N(C)C)cc3[s+]c2c1 [MTC, methyl-thioninium chloride]
Response: 41.7 µM

Values compiled from patent US8263589B2.
